Test system: HCT-116 cell line
Assay: Inhibition of cell growth, tetrazolium salt (MTT) assay
Type: cell-based
Settings: 0.25 μM compound; HCT-116; Table 2
Observation Type: HCT-116 % Inhibition at 0.25 μM (%)
Entry rule: numbers only, all in %.

If you can, please state the reported HCT-116 % Inhibition at 0.25 μM value of Nc1nc(NC2CCN(C(=O)Nc3ccc(-c4ccccc4)cc3)CC2)sc1C(=O)c1c(F)cccc1F [Example O63] .
40

If you can, please state the reported HCT-116 % Inhibition at 0.25 μM value of COC(=O)[C@@H](NC(=O)N1CCC(Nc2nc(N)c(C(=O)c3c(F)cccc3F)s2)CC1)C(C)C [Example O76] .
49

If you can, please state the reported HCT-116 % Inhibition at 0.25 μM value of CCOC(=O)C(CC(C)C)NC(=O)N1CCC(Nc2nc(N)c(C(=O)c3c(F)cccc3F)s2)CC1 (stereo not shown) [Example O69] .
51

As a next step, examine the compound that follows.
If you can, please state the reported HCT-116 % Inhibition at 0.25 μM value of CCOC(=O)CCCCCNC(=O)N1CCC(Nc2nc(N)c(C(=O)c3c(F)cccc3F)s2)CC1 [Example O70] .
52
